Measured IC50 of individual entries
Tested Target: c-Cbl (Homo sapiens (Human), UniProt P22681)
Sequence (P22681 47-435): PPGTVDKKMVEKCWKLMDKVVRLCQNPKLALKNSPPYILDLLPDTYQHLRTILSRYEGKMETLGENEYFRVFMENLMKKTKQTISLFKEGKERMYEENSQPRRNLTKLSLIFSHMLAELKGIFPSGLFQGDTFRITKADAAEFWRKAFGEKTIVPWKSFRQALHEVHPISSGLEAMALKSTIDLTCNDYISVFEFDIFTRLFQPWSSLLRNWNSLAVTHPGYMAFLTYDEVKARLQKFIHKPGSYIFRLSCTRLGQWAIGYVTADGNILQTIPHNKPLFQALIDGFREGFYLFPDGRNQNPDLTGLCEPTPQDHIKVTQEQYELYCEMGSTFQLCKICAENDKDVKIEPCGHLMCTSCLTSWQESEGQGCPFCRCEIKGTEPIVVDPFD
Experiment Summary: C-Cbl LCK Ub TR-FRET assay (c-cbl Lck HTRF)
Assay type: biochemical
Protocol: 6 μL of detection mixture was added to all wells and briefly centrifuged before incubating for 20 min at room temperature. […] IC50 was generated using no LCK as the low control and DMSO as the high control.

CN1CCN(Cc2cc3c(c(C(F)(F)F)c2)CN(c2cccc(C4(Cc5nncn5C)CC(F)(F)C4)c2)C3=O)C(C(F)(F)F)C1 (centres unmarked): 99 nM
Cn1cnnc1CC1(c2cccc(N3Cc4c(cc(CN5CCC[C@@](C)(O)C5)cc4C(F)(F)F)C3=O)c2)CC(F)(F)C1: 23 nM
Cn1cnnc1CC1(c2cc(C3CC3)nc(N3Cc4c(cc(CNC5(C)CCC5)cc4C(F)(F)F)C3=O)c2)COC1: 4.7 nM
CC(=O)N1CCN(Cc2cc3c(c(C(F)(F)F)c2)CN(c2cccc(C4([C@H](F)c5nncn5C)COC4)c2)C3=O)[C@@H](C(C)C)C1: 810 nM

Please look at the following molecule next.
Bench note: what IC50 did "Cn1cnnc1[C@@H](F)C1(c2cccc(N3Cc4c(cc(CNCC5CC5)cc4C(F)(F)F)C3=O)c2)CC(F)(F)C1" show?
14 nM

====

Measured IC50 of individual entries
Tested Target: c-Cbl (Homo sapiens (Human), UniProt P22681)
Experiment Summary: C-Cbl LCK Ub TR-FRET assay (c-cbl Lck HTRF)
Type: biochemical
Where a name gives a salt, the structure may show the parent alone.
Respond with a number, then the unit of measure.

Example compounds with recorded IC50:
Cn1cnnc1[C@@H](F)C1(c2cccc(N3Cc4c(cc(CN5CC[C@H](F)C5)cc4C(F)(F)F)C3=O)c2)COC1 [Compound 83]: 640 nM
Cn1cnnc1CC1(c2cccc(N3Cc4c(cc(CNCC5COC(C)(C)O5)cc4C(F)(F)F)C3=O)c2)CC(F)(F)C1 (centres unmarked) [Compound 357, formate]: 41 nM
Cn1cnnc1CC1(c2cc(NC3C4CCC3C4)nc(N3Cc4c(cccc4C(F)(F)F)C3=O)c2)COC1 (centres unmarked) [Compound 382]: 20000 nM
CC(C)[C@@H]1CNCCN1Cc1cc2c(c(C(F)(F)F)c1)CN(c1cccc(C3([C@@H](F)c4nncn4C)COC3)c1)C2=O [Compound 94]: 200 nM

Please look at the following compound next.
Bench note: what IC50 did CC(=O)NCCCCNc1cc(C2(Cc3nncn3C)CCC2)cc(N2Cc3c(cc(CNC4(C)CCC4)cc3C(F)(F)F)C2=O)n1 [Compound 314, formate] show?
31 nM

====

Tested Target: c-Cbl (Homo sapiens (Human))
Experiment Summary: C-Cbl LCK Ub TR-FRET assay (c-cbl Lck HTRF)
Type: biochemical
Experimental Conditions: C-cbl Lck HTRF IC50 relative to Cbl-b Lck HTRF IC50
Test Readout: (fold-selectivity)

Cn1cnnc1[C@H](F)C1(c2cccc(N3Cc4c(cc(CN5CCOCC5)cc4C(F)(F)F)C3=O)c2)COC1: 2.1x

What (fold-selectivity) appears in the records for this compound with c-Cbl (Homo sapiens (Human))? "Cn1cnnc1[C@H](F)C1(c2cccc(N3Cc4c(cc(CN5CCC(F)(CO)CC5)cc4C(F)(F)F)C3=O)c2)COC1"
1.9x

What about "Cn1cnnc1[C@@H](F)C1(c2cccc(N3Cc4c(cc(CN5CC(C)(CCl)C5)cc4C(F)(F)F)C3=O)c2)COC1" ?
1.9x

What about "C[C@@H](c1cc2c(c(C(F)(F)F)c1)CN(c1cccc(C3([C@H](F)c4nncn4C)COC3)c1)C2=O)N1CC(C)(F)C1" ?
2.0x
